target: UniProtKB O35493
Sequence (O35493 whole entry): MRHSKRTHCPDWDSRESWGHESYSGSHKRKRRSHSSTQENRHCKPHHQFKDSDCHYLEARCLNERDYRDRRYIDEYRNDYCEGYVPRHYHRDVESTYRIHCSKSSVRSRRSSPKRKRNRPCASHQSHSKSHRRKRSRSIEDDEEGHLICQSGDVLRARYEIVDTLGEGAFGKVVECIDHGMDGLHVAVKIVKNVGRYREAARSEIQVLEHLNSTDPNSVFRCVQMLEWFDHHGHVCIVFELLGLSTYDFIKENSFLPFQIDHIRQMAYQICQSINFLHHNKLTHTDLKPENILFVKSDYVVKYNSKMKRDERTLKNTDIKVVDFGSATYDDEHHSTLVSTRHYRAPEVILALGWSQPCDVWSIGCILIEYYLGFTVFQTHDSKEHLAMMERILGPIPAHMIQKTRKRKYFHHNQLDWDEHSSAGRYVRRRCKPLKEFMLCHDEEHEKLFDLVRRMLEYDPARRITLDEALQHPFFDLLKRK
test.protocol: Protein kinase assay
experimental.conditions: read-out: IC50 CLK4; 15 μmol/L ATP
quantity: IC50

// known answers, use as guide
>>> result("COc1cc(C=C2N=C(N)NC2=O)ccc1F")
"2.4 µM"
>>> result("NC1=NC(=Cc2ccccc2N2CCOCC2)C(=O)N1")
"> 10 µM"
>>> result("NC1=NC(=Cc2cc(Br)cs2)C(=O)N1")
"3.2 µM"
>>> result("COc1ccc(C=C2N=C(N)NC2=O)cc1F")
"≥ 10 µM"
>>> result("NC1=NC(=Cc2cccc(Br)c2)C(=O)N1")
"2.3 µM"
>>> result("CN(C)CCOc1ccc(C=C2N=C(N)NC2=O)cc1")
"> 10 µM"
>>> result("NC1=NC(=Cc2c[nH]nc2-c2ccccc2)C(=O)N1")
"> 10 µM"
>>> result("NC1=NC(=Cc2ccc(-n3ccnc3)cc2)C(=O)N1")
"> 10 µM"

We now examine a further compound.
[ask] Query (compound): Cc1ccc(C=C2N=C(N)NC2=O)s1 ; field requested: IC50
[reply] > 10 µM

---

target: DYRK2 (Homo sapiens, UniProt Q92630)
Sequence (Q92630 whole entry): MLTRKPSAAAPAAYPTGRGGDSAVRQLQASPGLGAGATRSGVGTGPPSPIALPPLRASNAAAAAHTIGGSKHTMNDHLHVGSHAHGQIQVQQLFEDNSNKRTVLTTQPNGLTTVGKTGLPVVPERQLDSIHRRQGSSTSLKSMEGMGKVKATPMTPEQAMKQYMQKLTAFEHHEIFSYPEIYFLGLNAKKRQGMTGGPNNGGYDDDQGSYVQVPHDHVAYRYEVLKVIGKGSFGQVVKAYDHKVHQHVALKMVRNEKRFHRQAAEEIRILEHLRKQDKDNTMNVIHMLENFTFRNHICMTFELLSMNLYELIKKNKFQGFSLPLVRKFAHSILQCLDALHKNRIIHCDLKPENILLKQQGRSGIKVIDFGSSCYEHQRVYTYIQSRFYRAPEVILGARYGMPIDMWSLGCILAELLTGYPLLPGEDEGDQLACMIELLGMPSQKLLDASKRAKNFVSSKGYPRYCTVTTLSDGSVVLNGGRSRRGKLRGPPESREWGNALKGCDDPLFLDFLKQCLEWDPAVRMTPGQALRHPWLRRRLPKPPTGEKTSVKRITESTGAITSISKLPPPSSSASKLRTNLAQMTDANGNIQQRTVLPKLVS
test.protocol: Protein kinase assay
Format: biochemical
experimental.conditions: 15 μmol/L ATP; read-out: IC50 DYRK2
quantity: IC50 (µM)

// known answers, use as guide
>>> readout_number("COc1ccc(C=C2N=C(N)NC2=O)cc1F [PAC4]")
4.5
>>> readout_number("Cc1ccc(C=C2N=C(N)NC2=O)s1 [PAC10]")
3.4
>>> readout_number("NC1=NC(=O)/C(=C2\\CCNC(=O)c3[nH]cc(Br)c32)N1 [Spongiacidin B]")
0.021
>>> readout_number("NC1=N/C(=C\\c2ccc(O)c(O)c2)C(=O)N1 [Polyandrocarpamine B]")
0.76
>>> readout_number("NC1=N/C(=C\\c2ccc(O)c(O)c2)C(=O)N1 [PAC2, polyandrocarpamine B]")
0.48

A. COc1cc(C=C2N=C(N)NC2=O)ccc1F [PAC5]
B. NC1=N/C(=C\c2ccc(O)c(O)c2)C(=O)N1 [PAC13, polyandrocarpamine B]
[ask] Sorting ascending by IC50, which comes first: A or B ? Response format: the label of the selected entry.
[reply] B

---

target: CDK9/cyclin T (Homo sapiens)
Sequence (P50750 whole entry): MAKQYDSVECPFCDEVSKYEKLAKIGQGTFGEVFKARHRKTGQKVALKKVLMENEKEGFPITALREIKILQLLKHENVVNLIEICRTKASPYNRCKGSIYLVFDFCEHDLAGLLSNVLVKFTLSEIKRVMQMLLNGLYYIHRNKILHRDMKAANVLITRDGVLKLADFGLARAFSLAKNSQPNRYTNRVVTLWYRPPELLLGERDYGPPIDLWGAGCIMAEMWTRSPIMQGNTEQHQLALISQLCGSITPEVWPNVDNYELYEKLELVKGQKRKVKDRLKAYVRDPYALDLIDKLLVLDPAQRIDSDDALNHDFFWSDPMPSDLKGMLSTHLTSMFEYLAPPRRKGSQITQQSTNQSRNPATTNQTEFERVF
Sequence (O60563 whole entry partner): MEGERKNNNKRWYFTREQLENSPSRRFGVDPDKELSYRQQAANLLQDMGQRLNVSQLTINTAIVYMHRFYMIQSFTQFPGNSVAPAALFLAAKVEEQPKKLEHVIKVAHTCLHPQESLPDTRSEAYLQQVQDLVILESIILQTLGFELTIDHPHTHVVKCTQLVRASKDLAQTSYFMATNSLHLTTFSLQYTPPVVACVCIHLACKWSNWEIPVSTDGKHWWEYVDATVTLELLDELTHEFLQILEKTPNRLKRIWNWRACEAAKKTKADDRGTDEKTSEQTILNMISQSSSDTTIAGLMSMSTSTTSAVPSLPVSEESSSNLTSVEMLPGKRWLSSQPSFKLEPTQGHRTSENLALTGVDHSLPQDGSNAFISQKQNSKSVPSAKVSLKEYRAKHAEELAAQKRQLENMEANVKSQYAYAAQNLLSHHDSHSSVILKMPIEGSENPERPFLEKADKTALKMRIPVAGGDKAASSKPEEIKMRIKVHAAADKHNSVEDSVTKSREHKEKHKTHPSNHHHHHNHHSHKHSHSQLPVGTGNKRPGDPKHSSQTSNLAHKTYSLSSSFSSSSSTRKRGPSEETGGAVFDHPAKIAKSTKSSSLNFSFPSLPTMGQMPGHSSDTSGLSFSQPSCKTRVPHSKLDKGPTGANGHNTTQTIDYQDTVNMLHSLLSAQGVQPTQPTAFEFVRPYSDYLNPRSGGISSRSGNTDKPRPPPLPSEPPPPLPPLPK
test.protocol: Protein kinase assay
experimental.conditions: read-out: IC50 CDK9/cyclin T; 15 μmol/L ATP
compounds and their reported IC50

// known answers, use as guide
>>> result("NC1=NC(=Cc2cccc(Br)c2)C(=O)N1")
"> 10 µM"
>>> result("NC1=NC(=Cc2c[nH]nc2-c2ccccc2)C(=O)N1")
"> 10 µM"
>>> result("NC1=NC(=Cc2ccccc2N2CCOCC2)C(=O)N1")
"> 10 µM"

[ask] Query (compound): CN(C)CCOc1ccc(C=C2N=C(N)NC2=O)cc1 ; field requested: IC50
[reply] > 10 µM

[ask] Query (compound): COc1cc(C=C2N=C(N)NC2=O)ccc1F ; field requested: IC50
[reply] ≥ 10 µM

[ask] Query (compound): NC1=NC(=Cc2ccc(-n3ccnc3)cc2)C(=O)N1 ; field requested: IC50
[reply] 0.51 µM

---

compounds and their reported pIC50
target: CDK2/cyclin A (Homo sapiens, UniProt P24941)
Construct: made in house
test.protocol: Protein kinase assay
Type: biochemical
experimental.conditions: 15 μmol/L ATP; read-out: IC50 CDK2/cyclin A
pIC50: −log10 of the molar value.

>>> result("COc1ccc(C=C2N=C(N)NC2=O)cc1F [PAC4]")
"≤ 5.00"
>>> result("COc1cc(/C=C2\\N=C(N)NC2=O)ccc1O [Polyandrocarpamine A]")
"< 5.00"

[ask] Query (compound): NC1=N/C(=C\CCNC(=O)c2cc(Br)c(Br)[nH]2)C(=O)N1 [Dispacamide] ; field requested: pIC50
[reply] < 5.00

Cited source: paper PMC5666424
